Consider the following sequences; for each one, report its PBM binding z-score.
Tested on: PXR homodimer (NR concentration 270 nM)
measurement-notes: PBM binding z-score (relative to random genomic background probes); higher = stronger binding; sequences stand for … in GC…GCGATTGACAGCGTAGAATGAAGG

Previously resolved entries follow.
# PBM binding z-score (sequence: GCATATAGGTAATACAAGCTGAAAGTCCGATTGT ) is -0.000493

The reported PBM binding z-score of the sequence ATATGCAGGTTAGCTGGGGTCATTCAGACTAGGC was 2.68

What the record says about AGTCAAAGTTCACTAGCTAACGTAAGATTCAGCT : PBM binding z-score is 1.99

response.value for ATCTCTTGGTAACCAAGTTCAGTGAATGCCGAAC (field: PBM binding z-score) = 2.1

Record TCGAGTAGTTTACCAATGGGGCATTCAGCTTTCT . Reported PBM binding z-score: -0.235

Hi there! I need PBM binding z-score for each item below, if you can.
1. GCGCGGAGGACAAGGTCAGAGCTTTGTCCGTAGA
2. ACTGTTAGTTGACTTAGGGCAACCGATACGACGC
3. GCTATTAGTTGAAAGGGCAAACGAATGATTCTCG
4. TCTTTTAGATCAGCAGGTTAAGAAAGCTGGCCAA
5. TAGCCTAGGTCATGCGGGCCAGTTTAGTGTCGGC

A.
1: -0.325; 2: 0.341; 3: 0.57; 4: 0.072; 5: -0.464

====

Test system: PPARg:RXRa 270nM:90nM, anti-RXR (NR concentration 270 nM, RXRa partner concentration 90 nM)
measurement-notes: PBM binding z-score (relative to random genomic background probes); higher = stronger binding; sequences stand for … in GC…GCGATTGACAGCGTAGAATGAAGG
Note to self: values exactly at 4 are fulfilled. So PBM binding z-score at or above 4 is fulfilled, below is not fulfilled.

Q. Is the recorded value of PBM binding z-score equal to or greater than 4 for this sequence? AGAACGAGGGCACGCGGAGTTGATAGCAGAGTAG
A. not fulfilled

Q. Kindly determine if PBM binding z-score recorded for ACTATTAGTTGAGATGAGGGCAACCGATAGGTTG is above or exactly 4.
A. not fulfilled

Q. PBM binding z-score >= 4 for TGTCAAAGTTCAAAGGTAAGGTAAGTATCCACAC ?
A. fulfilled

Q. // inclusive: PBM binding z-score at least 4? input: CCTACTGGGCCACGAAAGGTCTTTGATTCAGTGA
A. not fulfilled

Q. Kindly determine if PBM binding z-score recorded for TCATGTAGATCAGCAGGTTAAGAAAGCTGGCCAA is above or exactly 4.
A. not fulfilled

Next:
Q. Tell me whether PBM binding z-score is at least 4 here: CAGCCTAGGTCAGGGACAGTATAGGAGGAACGTT
A. not fulfilled

Q. Assess whether reported PBM binding z-score for GCATATAGGTTATACAAGGTGAAAGTCCGATTGT sits at 4 or higher.
A. not fulfilled

Q. Test whether the sequence TCTTGTAGATCAAGCAGGATAAGAAAGCCTGAGT records PBM binding z-score of 4 or higher.
A. not fulfilled

Q. Reported PBM binding z-score at or above 4? ACCGAAAGGTCGAAGGTGAGTATACCCACCCGAA
A. fulfilled

Q. For this sequence, is measured PBM binding z-score 4 or higher? TTGCCTAGGTCATGGGCCAGTATACCACGCGAAC
A. not fulfilled

Q. Form field: PBM binding z-score at least 4? Entry: ACTATTAGTTGAGACGAGGGCAACCGTTAGGTTG
A. not fulfilled

Q. hey, is PBM binding z-score for this one >= 4? TCTGCTAGGTCAACGATGGTCGGCTAATCTGCTA
A. not fulfilled

Q. Check this sequence for PBM binding z-score at or above 4: TCTTGTAGATCAATGGAGGTTAAGAAAGTGCGCT
A. not fulfilled

Q. Say whether CCTACTGGGCCAAGGTCATTGTTCAGTCAAAGCA shows PBM binding z-score of 4 or more.
A. fulfilled
